Source listed as patent US7223888B2.

- Measured On: KOR (Cavia porcellus, UniProt P41144)
- Construct: from tissue; host or cells: guinea pig cerebellum preparation
- Test: Opioid receptor competitive binding assay, KOR (3H-U-69,593)
- Parameters: species or system guinea pig
- Condition Label: read-out: Ki KOR
Readout: Ki (µM)
Report the figure in µM without appending any unit label.

Below are worked cases with known answers.
INSERT INTO results (compound, readout_number) VALUES
  ('NC(=O)C(Cc1ccccc1)NC(=O)C(Cc1ccccc1)C(O)/C=C/C(O)CC(N)Cc1ccc(O)cc1 (single isomer, unassigned) [(S, R, S, R)-43]', 0.29),
  ('NC(=O)C(Cc1ccccc1)OC(=O)C(Cc1ccccc1)C(O)/C=C/CC(O)C(N)Cc1ccc(O)cc1 [(S,S,S,R)-13]', 6),
  ('NC(=O)C(Cc1ccccc1)NC(=O)C(Cc1ccccc1)C(O)CCCC(O)C(N)Cc1ccc(O)cc1 (single isomer, unassigned) [(S,S,S,R)-6]', 3.9),
  ('NC(=O)C(Cc1ccccc1)NC(=O)C(Cc1ccccc1)C(O)/C=C/C(O)CC(N)Cc1ccc(O)cc1 (single isomer, unassigned) [(R, S, R, R)-43]', 0.27),
  ('NC(=O)C(Cc1ccccc1)NC(=O)C(Cc1ccccc1)C(O)/C=C/C(O)CC(N)Cc1ccc(O)cc1 (single isomer, unassigned) [(S, S, R, S)-43]', 0.45),
  ('NC(=O)C(Cc1ccccc1)NC(=O)C(Cc1ccccc1)C(O)/C=C/C(O)CC(N)Cc1ccc(O)cc1 (single isomer, unassigned) [(S, R, S, S)-43]', 3.1),
  ('NC(=O)C(Cc1ccccc1)NC(=O)C(Cc1ccccc1)C(O)CCCC(O)C(N)Cc1ccc(O)cc1 (single isomer, unassigned) [(S,R,S,R)-6]', 6.6),
  ('NC(=O)C(Cc1ccccc1)NC(=O)C(Cc1ccccc1)C(O)CCCC(O)C(N)Cc1ccc(O)cc1 (single isomer, unassigned) [(S,S,R,R)-6]', 0.73);

Respond only with Ki recorded for NC(=O)C(Cc1ccccc1)NC(=O)C(Cc1ccccc1)C(O)/C=C/C(O)CC(N)Cc1ccc(O)cc1 (single isomer, unassigned) [(R, R, S, S)-43]
0.88

Respond only with Ki recorded for NC(=O)C(Cc1ccccc1)NC(=O)C(Cc1ccccc1)C(O)/C=C/C(O)CC(N)Cc1ccc(O)cc1 (single isomer, unassigned) [(S, R, R, S)-43]
1.2

Respond only with Ki recorded for NC(=O)C(Cc1ccccc1)NC(=O)C(Cc1ccccc1)C(O)CCCC(O)C(N)Cc1ccc(O)cc1 (single isomer, unassigned) [(S,R,R,R)-6]
1.5
